These data points were gathered from the RNAGym collection of RNA variant scans (doi:10.7554/elife.80360).

B1: Hairpin Ribozyme (parent)
chain: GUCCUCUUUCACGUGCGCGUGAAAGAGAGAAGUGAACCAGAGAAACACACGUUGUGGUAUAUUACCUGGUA

- Variants of: B1
- procedureSummary: self-cleavage, relative activity (ratio to wild type); higher = more cleavage; co-transcriptional
Below, each entry is listed alongside its reported self-cleavage.

Illustrative cases are given below, each with its answer.
> print(dat)
                          constructsequence  testvalue
1  GUCCUCUUUCACGUGCGCGUGAAAGAGAGAAGUGAACCAGAGAAACCCACGUUGUGGUAUAUUACAUGGUA [A47C C66A]      0.205
2  GUCCACUUUCACGUGCGCGUGAAAGAGAGAAGUGAACCAGAGAAACACACGUUGUGGUAUAUCACCUGGUA [U5A U63C]      0.196

We next turn to a different variant, shown below.
Reported self-cleavage for GUCCUCUUUCACGUGCGCGUGAAAGAAAGAAGUGAACCAGAGAAUCACACGUUGUGGUAUAUUACCUGGUA [G27A A45U] : what is it?
0.201
